B1: Hairpin Ribozyme (parent)
chain: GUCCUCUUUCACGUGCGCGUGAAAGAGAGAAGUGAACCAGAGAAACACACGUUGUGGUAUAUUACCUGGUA

variants of: B1; assay: self-cleavage, relative activity (ratio to wild type); higher = more cleavage; co-transcriptional
Label rule, in plain words: self-cleavage of 0.3 and up is 1.0, under 0.3 is 0.0.

Below are worked cases with known answers.
Input: Kindly determine if self-cleavage recorded for C16G A49C is above or exactly 0.3.
Output: 0.0

Input: API: above_or_equal(metric=self-cleavage, cutoff=0.3) for item A11U C66A
Output: 0.0

Input: Please indicate if the recorded self-cleavage for U52C A64C meets or exceeds 0.3.
Output: 0.0

Next:
Input: Is reported self-cleavage greater than or equal to 0.3 here: C37U A45U
Output: 0.0

Input: Is reported self-cleavage greater than or equal to 0.3 here: U14A U58A
Output: 1.0

Input: Form field: self-cleavage at least 0.3? Entry: A44U A61U
Output: 0.0

Input: Record A22U A45U ; criterion: self-cleavage no lower than 0.3. Met?
Output: 0.0

Input: Please check the record C6A U20A and state if its self-cleavage is at or above 0.3.
Output: 1.0
